Origin of the recorded values: ChEMBL document CHEMBL1130143

# ASSAY_TARGET: Opioid receptors; mu & delta (Rattus norvegicus) (UniProt P33533+P33535)
# Sequence (P33533 whole entry, looked up): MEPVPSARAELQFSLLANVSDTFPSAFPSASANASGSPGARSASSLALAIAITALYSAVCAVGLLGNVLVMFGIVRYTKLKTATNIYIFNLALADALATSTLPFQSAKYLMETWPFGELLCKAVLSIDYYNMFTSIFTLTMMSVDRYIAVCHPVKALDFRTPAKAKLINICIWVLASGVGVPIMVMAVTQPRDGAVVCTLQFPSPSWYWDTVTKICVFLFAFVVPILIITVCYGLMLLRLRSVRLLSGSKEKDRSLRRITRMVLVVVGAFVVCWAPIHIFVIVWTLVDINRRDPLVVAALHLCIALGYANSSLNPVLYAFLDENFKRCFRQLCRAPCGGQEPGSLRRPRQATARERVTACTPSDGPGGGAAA
# Sequence (P33535 whole entry, looked up): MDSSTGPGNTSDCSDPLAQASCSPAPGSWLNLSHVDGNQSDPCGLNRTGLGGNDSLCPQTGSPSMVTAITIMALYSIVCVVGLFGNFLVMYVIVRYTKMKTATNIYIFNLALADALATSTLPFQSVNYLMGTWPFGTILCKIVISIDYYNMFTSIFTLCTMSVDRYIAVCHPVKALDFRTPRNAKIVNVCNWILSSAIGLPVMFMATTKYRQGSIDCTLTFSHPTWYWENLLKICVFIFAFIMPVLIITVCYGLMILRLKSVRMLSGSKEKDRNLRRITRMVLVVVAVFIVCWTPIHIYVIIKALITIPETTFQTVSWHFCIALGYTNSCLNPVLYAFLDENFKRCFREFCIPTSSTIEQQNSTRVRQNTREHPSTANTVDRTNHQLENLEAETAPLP
# EXPERIMENTAL_DETAILS: Binding affinity ratio on mu opioid receptor( rat brain membranes) with respect to delta opioid receptor (rat brain membranes)
# maps each entry to its Ratio
QUANTITY_MEASURED: Ratio

• C=CCN1C[C@H](C)N([C@H](c2ccc(C(=O)N(CCC)CCC)cc2)c2cccc(OC)c2)C[C@H]1C = 305
• C=CCN1C[C@H](C)N([C@@H](c2ccc(C(=O)N3CCCC3)cc2)c2cccc(OC)c2)C[C@H]1C = > 9.4
• C=CCN1C[C@H](C)N([C@H](c2ccc(C(=O)N3CCCCC3)cc2)c2cccc(OC)c2)C[C@H]1C = > 171
• C=CCN1C[C@H](C)N([C@@H](c2ccc(C(=O)N(CCCC)CCCC)cc2)c2cccc(OC)c2)C[C@H]1C = > 5.5
• C=CCN1C[C@H](C)N([C@@H](c2ccc(C(=O)NCC)cc2)c2cccc(OC)c2)C[C@H]1C = 4.9
• C=CCN1C[C@H](C)N([C@H](c2ccc(C(=O)NC(C)(C)C)cc2)c2cccc(OC)c2)C[C@H]1C = > 8.9
• C=CCN1C[C@H](C)N([C@@H](c2ccc(C(N)=O)cc2)c2cccc(OC)c2)C[C@H]1C = > 6.4
• C=CCN1C[C@H](C)N([C@H](c2ccc(C(=O)N3CCCCCC3)cc2)c2cccc(OC)c2)C[C@H]1C = > 305
• C=CCN1C[C@H](C)N([C@H](c2ccc(C(=O)N(C(C)C)C(C)C)cc2)c2cccc(OC)c2)C[C@H]1C = > 352
• C=CCN1C[C@H](C)N([C@H](c2ccc(C(=O)N(C)CC)cc2)c2cccc(OC)c2)C[C@H]1C = 1760
• C=CCN1C[C@H](C)N([C@@H](c2ccc(C(=O)N(CC)CCCC)cc2)c2cccc(OC)c2)C[C@H]1C = 39
• C=CCN1C[C@H](C)N([C@@H](c2ccc(C(=O)N3CCCCCC3)cc2)c2cccc(OC)c2)C[C@H]1C = > 20
• C=CCN1C[C@H](C)N([C@H](c2ccc(C(=O)N(CC)CCCC)cc2)c2cccc(OC)c2)C[C@H]1C = 286
• C=CCN1C[C@H](C)N([C@H](c2ccc(C(=O)N(CCCC)CCCC)cc2)c2cccc(OC)c2)C[C@H]1C = > 71
• C=CCN1C[C@H](C)N([C@@H](c2ccc(C(=O)N(C)C)cc2)c2cccc(OC)c2)C[C@H]1C = > 11
• C=CCN1C[C@H](C)N([C@H](c2ccc(C(N)=O)cc2)c2cccc(OC)c2)C[C@H]1C = > 5.5
• C=CCN1C[C@H](C)N([C@@H](c2ccc(C(=O)N3CCCCC3)cc2)c2cccc(OC)c2)C[C@H]1C = > 5.5
• C=CCN1C[C@H](C)N([C@@H](c2ccc(C(=O)N(C)CC)cc2)c2cccc(OC)c2)C[C@H]1C = > 41
• C=CCN1C[C@H](C)N([C@@H](c2ccc(C(=O)N(CCC)CCC)cc2)c2cccc(OC)c2)C[C@H]1C = 28
• C=CCN1C[C@H](C)N([C@@H](c2ccc(C(=O)N(C(C)C)C(C)C)cc2)c2cccc(OC)c2)C[C@H]1C = > 7.3
• C=CCN1C[C@H](C)N([C@H](c2ccc(C(=O)N(C)C)cc2)c2cccc(OC)c2)C[C@H]1C = 679
• C=CCN1C[C@H](C)N([C@H](c2ccc(C(=O)N3CCCC3)cc2)c2cccc(OC)c2)C[C@H]1C = > 138
• C=CCN1C[C@H](C)N([C@H](c2ccc(C(=O)NC(CC)CC)cc2)c2cccc(OC)c2)C[C@H]1C = > 14
• C=CCN1C[C@H](C)N([C@H](c2ccc(C(=O)NCC)cc2)c2cccc(OC)c2)C[C@H]1C = 1.6
